Provenance of the data: paper PMC10215143

Consider the following compounds and their measured MIC Average Yeast readings.
Tested on: Yeast
condition context: 24 h
Where a SMILES comes first, the peptide text is derived from it. [ ]: non-standard residue; d: D form. The star is where a group is joined. NMeK = CN[C@@H](CCCCN)C(=O)O; Decanoyl = CCCCCCCCCC(=O)*
Return type: number; implicit unit µM.

// known answers, use as guide
{"compound": "CCCCCCCCCC(=O)N[C@H](C(=O)N[C@@H](CCCCN)C(=O)N[C@@H](CCC(N)=O)C(=O)N[C@H](C(=O)N[C@@H](CCCCN)C(=O)N[C@@H](CCCCN)C(=O)N[C@@H](CC(C)C)C(=O)N[C@@H](Cc1ccccc1)C(=O)N[C@@H](CCCCN)C(=O)N[C@@H](CCCCN)C(N)=O)C(C)C)[C@@H](C)CC [C10:0-A2, C10:0-IKQVKKLFKK-NH2] (Decanoyl-IKQVKKLFKK-NH2)", "observed": 90.6}
{"compound": "CCCCCCCCCC(=O)N[C@H](C(=O)N[C@@H](CCCCN)C(=O)N[C@@H](CCC(N)=O)C(=O)N[C@H](C(=O)N[C@@H](CCCCN)C(=O)N[C@@H](CCCCN)C(=O)N[C@@H](CC(C)C)C(=O)N[C@@H](Cc1ccccc1)C(=O)N(C)[C@@H](CCCCN)C(=O)N[C@@H](CCCCN)C(N)=O)C(C)C)[C@@H](C)CC [C10:0-A2(9-NMeLys), C10:0-IKQVKKLF(NMe-K)K-NH2] (Decanoyl-IKQVKKLF[NMeK]K-NH2)", "observed": 134.6}

Now examine the next entry.
Can you look up MIC Average Yeast on Yeast for CCCCCCCCCC(=O)N[C@H](C(=O)N[C@H](CCCCN)C(=O)N[C@@H](CCC(N)=O)C(=O)N[C@H](C(=O)N[C@H](CCCCN)C(=O)N[C@H](CCCCN)C(=O)N[C@@H](CC(C)C)C(=O)N[C@@H](Cc1ccccc1)C(=O)N[C@H](CCCCN)C(=O)N[C@H](CCCCN)C(N)=O)C(C)C)[C@@H](C)CC [C10:0-A2(dK), C10:0-IdKQVdKdKLFdKdK-NH2] (Decanoyl-I[dK]QV[dK][dK]LF[dK][dK]-NH2) ?
135.9
